molecular target: human thyroid receptor alpha ligand-binding domain (LBD) (Homo sapiens); test: TR-FRET thyroid receptor alpha coactivator assay (THR biochemical assay, Assay 1); conditions: Table 4, THR-alpha, read-out: Activity category Assay 1 (EC50, THR-alpha agonist activity)
Could you please report measured EC50 for the items listed next?

List the reported EC50 of each compound below.
1. Nc1nn(-c2cc(Cl)c(Oc3cc(C4CC(F)(F)C4)c(=O)[nH]n3)c(Cl)c2)c(=O)[nH]c1=O
2. Nc1nn(-c2cc(Cl)c(Oc3cc(-c4ccc5ncccc5c4)c(=O)[nH]n3)c(Cl)c2)c(=O)[nH]c1=O
3. CC(C)c1cc(Oc2c(Cl)cc(-n3nc(C#N)c(=O)[nH]c3=O)c3c2CC3)n[nH]c1=O

Outgoing:
1 to 25 µM
> 25 µM
1 to 25 µM

Please report EC50 for every entry that follows.
1. Cc1cc(-n2ncc(=O)[nH]c2=O)cc(C)c1Cc1ccc2[nH]cc(C(C)C)c2n1
2. C=C(C)c1cc(Oc2c(Cl)cc(-n3nc(N)c(=O)[nH]c3=O)cc2Cl)n[nH]c1=O
3. CC(C)Nc1n[nH]c2ccc(Oc3c(Cl)cc(-n4nc(C#N)c(=O)[nH]c4=O)cc3Cl)cc12

Outgoing:
< 0.05 µM
0.05 to 0.25 µM
< 0.05 µM

Incoming: Please look at this compound and report its EC50: "Cc1cccc(-c2cc(=O)[nH]nc2Oc2c(Cl)cc(-n3ncc(=O)[nH]c3=O)cc2Cl)c1"
Outgoing: > 25 µM

----------
Target: THR alpha (Homo sapiens)
Construct: expressed in transfected cells; host or cells: HEK293T (ATCC CRL-3216)
Sequence (P10827 1-410 isoform P10827-2): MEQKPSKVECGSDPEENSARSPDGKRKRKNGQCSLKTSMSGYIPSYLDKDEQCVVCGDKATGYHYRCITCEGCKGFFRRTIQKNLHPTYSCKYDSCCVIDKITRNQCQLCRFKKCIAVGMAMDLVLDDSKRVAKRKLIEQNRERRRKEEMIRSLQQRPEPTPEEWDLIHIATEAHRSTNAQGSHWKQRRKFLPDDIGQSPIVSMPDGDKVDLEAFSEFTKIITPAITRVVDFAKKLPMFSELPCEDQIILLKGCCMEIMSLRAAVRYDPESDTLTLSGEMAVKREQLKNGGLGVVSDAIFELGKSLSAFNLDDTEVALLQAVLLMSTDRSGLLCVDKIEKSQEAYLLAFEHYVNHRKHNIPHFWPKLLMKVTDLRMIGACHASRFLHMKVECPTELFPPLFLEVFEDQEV
Sequence (P19793 1-462 partner): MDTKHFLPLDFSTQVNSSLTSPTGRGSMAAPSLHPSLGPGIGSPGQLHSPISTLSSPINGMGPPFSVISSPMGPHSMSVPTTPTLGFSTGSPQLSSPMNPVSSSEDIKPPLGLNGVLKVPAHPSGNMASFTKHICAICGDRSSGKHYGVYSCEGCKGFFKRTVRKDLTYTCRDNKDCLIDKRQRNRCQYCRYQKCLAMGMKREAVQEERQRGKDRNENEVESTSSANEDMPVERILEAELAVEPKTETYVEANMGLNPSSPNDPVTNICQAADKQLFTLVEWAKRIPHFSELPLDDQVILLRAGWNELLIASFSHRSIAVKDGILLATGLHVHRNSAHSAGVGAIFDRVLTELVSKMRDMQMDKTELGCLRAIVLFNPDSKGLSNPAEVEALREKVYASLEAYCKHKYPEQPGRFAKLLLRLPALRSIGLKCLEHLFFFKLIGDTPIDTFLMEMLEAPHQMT
Experiment: HEK293T THR alpha/RXR luciferase reporter assay (Assay 2)
Assay type: cell-based
Conditions: Table 4; THR-alpha; Assay 2; read-out: Activity category Assay 2 (EC50, THR-alpha agonist activity)
pEC50: −log10 of the molar value.
Task for the reader: assign each of the following compounds its reported pEC50.

Consider the following illustrative entries.
CC1(C)CC(c2cc(Oc3c(Cl)cc(-n4nc(N)c(=O)[nH]c4=O)cc3Cl)n[nH]c2=O)CCO1 (stereo not drawn)
< 5.00
Cc1c(-n2nc(N)c(=O)[nH]c2=O)cc(Cl)c(Oc2cc(C(C)C)c(=O)[nH]n2)c1Cl
5.00 to 6.00
CC(C)/C=C1\C(=O)Nc2ccc(Oc3c(Cl)cc(-n4nc(N)c(=O)[nH]c4=O)cc3Cl)cc21
> 7.30
CC(C)c1cc(Oc2c(Cl)cc(-c3nn(C)c(=O)[nH]c3=O)cc2Cl)n[nH]c1=O
6.00 to 6.60
Nc1nn(-c2cc(Cl)c(Oc3ccc4c(c3)C3(CCCC3)C(=O)N4)c(Cl)c2)c(=O)[nH]c1=O
> 7.30
N#Cc1nn(-c2cc(Cl)c(Oc3ccc4[nH]cc(C#N)c4c3)c(Cl)c2)c(=O)[nH]c1=O
< 5.00
Nc1nn(-c2cc(Cl)c(Oc3cc(C4CCc5ccccc5C4)c(=O)[nH]n3)c(Cl)c2)c(=O)[nH]c1=O (stereo not drawn)
< 5.00
CC(C)c1c[nH]c2ccc(Oc3c(Cl)cc(-n4nc(N)c(=O)[nH]c4=O)cc3Cl)cc12
> 7.30

Can you give me pEC50 for all of these, one by one?
1. Cc1cc(-n2nc(C#N)c(=O)[nH]c2=O)cc(C)c1Cc1ccc2[nH]nc(C(C)C)c2c1
2. C=C(C)c1cc(Oc2c(Cl)cc(-n3nc(N)c(=O)[nH]c3=O)cc2Cl)n[nH]c1=O
3. CC(C)c1c[nH]c2nnc(Oc3c(Cl)cc(-n4nc(N)c(=O)[nH]c4=O)cc3Cl)cc12

Outgoing:
6.00 to 6.60
6.00 to 6.60
5.00 to 6.00

----------
Exercise: state measured pEC50 for each of the molecules provided.
Target: THR alpha (Homo sapiens)
Construct: expressed in transfected cells; host or cells: HEK293T (ATCC CRL-3216)
Sequence (P10827 1-410 isoform P10827-2): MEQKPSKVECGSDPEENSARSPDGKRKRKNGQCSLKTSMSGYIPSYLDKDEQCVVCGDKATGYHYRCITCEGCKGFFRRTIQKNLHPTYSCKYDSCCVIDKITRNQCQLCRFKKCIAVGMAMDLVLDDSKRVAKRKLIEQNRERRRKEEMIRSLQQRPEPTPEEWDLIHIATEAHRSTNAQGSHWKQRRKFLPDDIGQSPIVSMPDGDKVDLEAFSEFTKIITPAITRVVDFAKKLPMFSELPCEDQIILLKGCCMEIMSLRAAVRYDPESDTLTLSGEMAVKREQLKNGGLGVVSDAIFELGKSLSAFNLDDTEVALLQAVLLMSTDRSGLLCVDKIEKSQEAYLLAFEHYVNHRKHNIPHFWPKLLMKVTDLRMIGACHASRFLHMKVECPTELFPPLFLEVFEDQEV
Sequence (P19793 1-462 partner): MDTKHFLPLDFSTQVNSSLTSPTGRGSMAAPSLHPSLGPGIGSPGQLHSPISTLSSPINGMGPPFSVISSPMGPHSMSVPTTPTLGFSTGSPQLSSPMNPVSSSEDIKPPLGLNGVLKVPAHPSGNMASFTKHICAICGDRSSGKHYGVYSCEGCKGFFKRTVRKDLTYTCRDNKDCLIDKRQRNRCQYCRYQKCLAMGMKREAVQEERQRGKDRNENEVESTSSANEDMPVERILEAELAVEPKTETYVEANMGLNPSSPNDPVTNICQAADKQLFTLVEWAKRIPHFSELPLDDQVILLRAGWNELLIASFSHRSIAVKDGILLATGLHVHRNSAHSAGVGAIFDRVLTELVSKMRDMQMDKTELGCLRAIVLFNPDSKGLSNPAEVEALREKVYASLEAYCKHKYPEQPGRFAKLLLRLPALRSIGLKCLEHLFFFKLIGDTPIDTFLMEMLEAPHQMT
Assay: HEK293T THR alpha/RXR luciferase reporter assay (Assay 2)
Type: cell-based
Conditions: Table 4; THR-alpha; Assay 2; read-out: Activity category Assay 2 (EC50, THR-alpha agonist activity)
Method: HEK293T Reporter THRalpha/Beta/RXR Reporter Assay (Assay 2) The purpose of this assay is to evaluate the effect of compounds on the thyroid hormone nuclear receptor pathway in HEK293T cells. […] Transfected cells are stimulated with test compounds for 18-24 hours before activation of the thyroid hormone pathway is measured via a luciferase read-out. Procedure. […] Percent agonism is calculated using the following equation: 100× (sample-negative control)/(positive control-negative control).
pEC50: −log10 of the molar value.

Nc1nn(-c2cc(Cl)c(Oc3cc(Cc4ccc(=O)[nH]n4)c(=O)[nH]n3)c(Cl)c2)c(=O)[nH]c1=O [Compound 160]
< 5.00

Give one value of pEC50 per listed molecule.
1. O=c1cc(-c2ccc3ccccc3c2)c(Oc2c(Cl)cc(-n3ncc(=O)[nH]c3=O)cc2Cl)n[nH]1 [Compound 92-A]
2. CC(c1c[nH]c2ccc(Oc3c(Cl)cc(-n4nc(C#N)c(=O)[nH]c4=O)cc3Cl)cc12)C(F)(F)F (stereo not shown) [Compound 45]
3. Nc1nn(-c2cc(Cl)c(Oc3cc(C4Cc5ccccc54)c(=O)[nH]n3)c(Cl)c2)c(=O)[nH]c1=O (stereo not shown) [Compound 158]
4. CCC(C)c1cc(Oc2c(Cl)cc(-n3nc(N)c(=O)[nH]c3=O)cc2Cl)n[nH]c1=O (stereo not shown) [Compound 39-A]
5. Nc1nn(-c2cc(Cl)c(Oc3cc(C45CCC(C4)C5)c(=O)[nH]n3)c(Cl)c2)c(=O)[nH]c1=O [Compound 101]
6. CC(C)c1c[nH]c2ccc(Oc3c(Cl)cc(-n4nc(C#N)c(=O)[nH]c4=O)cc3Cl)nc12 [Compound 18]

Outgoing:
< 5.00
6.00 to 6.60
5.00 to 6.00
6.60 to 7.30
6.60 to 7.30
5.00 to 6.00
